Listed here: items and their measured pIC50.
target: Metabotropic glutamate receptor 5 (Homo sapiens); assay: Displacement of [3H]MPEP from mGlu5 receptor
Sequence (P41594 whole entry): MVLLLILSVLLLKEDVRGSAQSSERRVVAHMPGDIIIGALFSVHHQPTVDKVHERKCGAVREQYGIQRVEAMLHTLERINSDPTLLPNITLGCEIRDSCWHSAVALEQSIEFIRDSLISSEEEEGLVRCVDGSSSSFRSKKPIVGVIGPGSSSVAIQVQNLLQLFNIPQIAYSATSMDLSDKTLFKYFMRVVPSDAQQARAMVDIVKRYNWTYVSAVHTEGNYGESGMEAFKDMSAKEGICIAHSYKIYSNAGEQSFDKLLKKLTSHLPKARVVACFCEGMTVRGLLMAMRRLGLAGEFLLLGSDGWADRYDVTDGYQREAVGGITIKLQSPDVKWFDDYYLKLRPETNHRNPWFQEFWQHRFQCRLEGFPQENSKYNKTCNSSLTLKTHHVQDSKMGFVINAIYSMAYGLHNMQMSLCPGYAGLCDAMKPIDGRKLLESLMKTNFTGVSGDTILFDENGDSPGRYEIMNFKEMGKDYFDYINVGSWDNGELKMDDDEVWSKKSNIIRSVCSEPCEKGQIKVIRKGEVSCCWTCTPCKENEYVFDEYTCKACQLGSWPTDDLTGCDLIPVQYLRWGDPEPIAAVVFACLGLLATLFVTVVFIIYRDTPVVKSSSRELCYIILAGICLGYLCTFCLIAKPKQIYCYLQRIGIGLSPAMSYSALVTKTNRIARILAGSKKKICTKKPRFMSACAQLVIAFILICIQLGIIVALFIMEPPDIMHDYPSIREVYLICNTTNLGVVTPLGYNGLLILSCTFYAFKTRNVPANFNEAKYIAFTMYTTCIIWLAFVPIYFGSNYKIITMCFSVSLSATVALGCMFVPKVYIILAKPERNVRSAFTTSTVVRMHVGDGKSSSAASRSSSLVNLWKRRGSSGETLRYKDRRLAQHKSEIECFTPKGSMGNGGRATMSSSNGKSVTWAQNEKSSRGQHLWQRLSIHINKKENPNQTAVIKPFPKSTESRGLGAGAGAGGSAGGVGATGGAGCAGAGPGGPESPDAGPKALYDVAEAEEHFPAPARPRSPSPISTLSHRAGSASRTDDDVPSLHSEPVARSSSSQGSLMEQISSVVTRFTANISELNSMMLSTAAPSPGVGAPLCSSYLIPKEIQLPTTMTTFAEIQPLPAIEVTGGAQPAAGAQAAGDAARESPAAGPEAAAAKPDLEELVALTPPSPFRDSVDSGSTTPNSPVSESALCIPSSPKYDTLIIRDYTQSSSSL
pIC50: −log10 of the molar value.

Cn1cc(O)nc1NC(=O)Nc1ccc(Cl)cc1
< 5.30

From here, focus on the item given below.
// Input: Cn1cc(O)nc1NC(=O)Nc1cccnc1 . Output its pIC50 only.
< 5.30
